Cited source for all entries: patent US20240218023A1

Biological target: T1, asialoglycoprotein receptor (ASGPR) on HepG2 cells (human, UniProt P07306 1-291; P07307 1-311)
T1 construct: whole, on cells; also called ASGPR receptor on liver cells
T1 sequence (looked up) 1: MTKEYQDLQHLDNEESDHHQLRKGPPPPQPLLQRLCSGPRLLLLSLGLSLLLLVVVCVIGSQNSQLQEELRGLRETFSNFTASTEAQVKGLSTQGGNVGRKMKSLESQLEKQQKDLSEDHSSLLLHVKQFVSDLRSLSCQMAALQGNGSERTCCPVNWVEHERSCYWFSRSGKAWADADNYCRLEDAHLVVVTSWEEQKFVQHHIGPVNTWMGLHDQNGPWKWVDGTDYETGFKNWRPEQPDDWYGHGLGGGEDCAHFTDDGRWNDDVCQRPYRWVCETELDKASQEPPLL
T1 sequence (looked up) 2: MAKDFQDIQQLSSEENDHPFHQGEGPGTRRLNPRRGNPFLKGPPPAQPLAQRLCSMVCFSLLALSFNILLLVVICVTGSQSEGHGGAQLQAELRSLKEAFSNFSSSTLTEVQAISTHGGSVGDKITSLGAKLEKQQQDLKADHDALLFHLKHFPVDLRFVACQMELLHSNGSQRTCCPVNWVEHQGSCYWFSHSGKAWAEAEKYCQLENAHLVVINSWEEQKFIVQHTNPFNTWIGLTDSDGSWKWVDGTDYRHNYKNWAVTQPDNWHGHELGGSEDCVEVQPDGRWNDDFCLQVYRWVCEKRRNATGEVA
Assay: flow cytometry titration on HepG2 cells (% FAM-positive cells, 1.6-200 nM, 24 h)
value-type: Kd (nM)
API: value field is a number in nM; no unit string.

The reported Kd of the binder KEKGKG (head-to-tail cyclic; each Lys side chain carries GalNAc via linker Gal-3; Glu side chain carries Linker2 (6-aminohexyl amide) with 5-FAM, also called ID013) [5-FAM-CPMB-0013] was 7
